experimental system: Serine/threonine-protein kinase MARK1 (Homo sapiens) (UniProt Q9P0L2)
Sequence (Q9P0L2 whole entry, looked up): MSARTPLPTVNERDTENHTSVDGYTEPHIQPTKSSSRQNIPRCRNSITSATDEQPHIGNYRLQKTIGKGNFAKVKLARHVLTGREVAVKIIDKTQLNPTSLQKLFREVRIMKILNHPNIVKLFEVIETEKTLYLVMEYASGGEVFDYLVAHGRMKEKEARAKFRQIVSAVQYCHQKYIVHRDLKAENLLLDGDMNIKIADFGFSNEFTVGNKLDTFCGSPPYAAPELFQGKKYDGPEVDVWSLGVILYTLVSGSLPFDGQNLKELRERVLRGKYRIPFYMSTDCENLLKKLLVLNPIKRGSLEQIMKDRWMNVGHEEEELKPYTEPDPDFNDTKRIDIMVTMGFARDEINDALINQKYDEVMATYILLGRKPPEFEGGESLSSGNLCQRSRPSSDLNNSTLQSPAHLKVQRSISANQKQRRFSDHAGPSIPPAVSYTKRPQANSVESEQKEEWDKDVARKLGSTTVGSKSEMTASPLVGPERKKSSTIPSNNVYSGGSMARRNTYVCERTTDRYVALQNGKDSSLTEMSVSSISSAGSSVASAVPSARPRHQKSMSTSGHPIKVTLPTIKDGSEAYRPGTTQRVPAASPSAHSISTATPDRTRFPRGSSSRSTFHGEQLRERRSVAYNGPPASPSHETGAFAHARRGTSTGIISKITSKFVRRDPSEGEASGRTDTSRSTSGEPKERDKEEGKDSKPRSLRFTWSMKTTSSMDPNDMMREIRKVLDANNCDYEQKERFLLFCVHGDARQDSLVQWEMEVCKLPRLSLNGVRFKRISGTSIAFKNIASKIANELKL
test settings: at 10 µM
// reported residual activity per item
# unit: % | format: bare number

Use these answered entries as a reference point.
COc1ccc2c(c[n+](C)c3c4cc5c(cc4ccc23)OCO5)c1OC; 91
O=C1NC(=O)c2c1c1c3ccccc3n3c1c1c2c2ccccc2n1C1CCC3O1; 29
c1cc(-c2cnn3cc(-c4ccc(OCCN5CCCCC5)cc4)cnc23)ccn1; 16
O=c1[nH]c2ccccc2n1C1CCN(Cc2ccc(-c3nc4cc5[nH]cnc5cc4nc3-c3ccccc3)cc2)CC1; 90

Next:
Req: What does the record list as residual activity for N/C(=N\[N+](=O)[O-])N/N=C\c1ccc(-c2cccc([N+](=O)[O-])c2)o1 ?
Resp: 85

---

experimental system: Tyrosine-protein kinase CSK (Homo sapiens)
test settings: at 1 µM
value kind: residual activity (%)
# unit: % | format: bare number

Use these answered entries as a reference point.
O=C1c2ccccc2-c2nc3nnnn3nc21; 123
COc1cc2ncnc(Nc3ccc(OCc4ccccc4)cc3)c2cc1OC; 84
c1cc(-c2cnn3cc(-c4ccc(OCCN5CCCCC5)cc4)cnc23)ccn1; 100
N/C(=N\[N+](=O)[O-])N/N=C\c1ccc(-c2cccc([N+](=O)[O-])c2)o1; 122
COC(=O)[C@@]1(O)C[C@H]2O[C@]1(C)n1c3ccccc3c3c4c(c5c6ccccc6n2c5c31)C(=O)NC4; 71
O=C1Nc2ccc3ncsc3c2/C1=C/c1c[nH]cn1; 104
CC(C)(C)c1cc(C=C(C#N)C#N)cc(Br)c1O; 103
O=c1[nH]c2ccccc2n1C1CCN(Cc2ccc(-c3nc4cc5[nH]cnc5cc4nc3-c3ccccc3)cc2)CC1; 112

Req: What does the record list as residual activity for O=[N+]([O-])/C=C/c1ccc2c(c1)OCO2 ?
Resp: 112

---

experimental system: Serine/threonine-protein kinase Chk1 (Homo sapiens) (UniProt O14757)
Sequence (whole entry): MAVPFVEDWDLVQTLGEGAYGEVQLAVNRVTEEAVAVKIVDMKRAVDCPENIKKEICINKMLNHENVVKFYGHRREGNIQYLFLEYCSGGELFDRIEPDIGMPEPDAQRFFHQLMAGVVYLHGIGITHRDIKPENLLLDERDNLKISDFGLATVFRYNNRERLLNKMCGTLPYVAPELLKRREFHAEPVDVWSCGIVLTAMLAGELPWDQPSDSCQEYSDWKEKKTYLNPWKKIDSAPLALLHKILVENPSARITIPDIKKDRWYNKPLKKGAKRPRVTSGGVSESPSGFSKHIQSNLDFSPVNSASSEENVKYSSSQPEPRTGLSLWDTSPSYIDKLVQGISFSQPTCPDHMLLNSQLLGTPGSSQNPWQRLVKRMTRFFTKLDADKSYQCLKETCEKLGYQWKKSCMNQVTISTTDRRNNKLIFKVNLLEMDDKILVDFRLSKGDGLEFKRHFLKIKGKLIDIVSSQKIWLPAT
test settings: at 10 µM
Threshold 80%. residual activity below it: Y. residual activity at it or above: N.

Would you please look over these solved cases?
O=C1Nc2ccc3ncsc3c2/C1=C/c1c[nH]cn1; Y
CCn1cnc2c(Nc3cccc(Cl)c3)nc(N[C@@H]3CCCC[C@@H]3N)nc21; Y
O=[N+]([O-])/C=C/c1ccc2c(c1)OCO2; N
CC(C)(C)c1cc(C=C(C#N)C#N)cc(Br)c1O; N

Now examine the next entry.
Req: Determine whether this molecule shows residual activity lower than 80% (ties excluded): O=c1[nH]c2ccccc2n1C1CCN(Cc2ccc(-c3nc4cc5[nH]cnc5cc4nc3-c3ccccc3)cc2)CC1
Resp: N

---

experimental system: Tyrosine-protein kinase Yes (Homo sapiens)
test settings: at 1 µM
value kind: residual activity (%)
# unit: % | format: bare number

Req: What does the record list as residual activity for COc1ccc2c(c1)/C(=C/c1cnc[nH]1)C(=O)N2 ?
Resp: 96

Req: What does the record list as residual activity for c1cc(-c2cnn3cc(-c4ccc(OCCN5CCCCC5)cc4)cnc23)ccn1 ?
Resp: 7

---

experimental system: Serine/threonine-protein kinase Chk1 (Homo sapiens) (UniProt O14757)
test settings: at 1 µM
// reported residual activity per item
# unit: % | format: bare number

Use these answered entries as a reference point.
COc1ccc2c(c[n+](C)c3c4cc5c(cc4ccc23)OCO5)c1OC; 86
C[S+]([O-])c1ccc(-c2nc(-c3ccc(F)cc3)c(-c3ccncc3)[nH]2)cc1 (stereo not given); 104
O=C1NC(=O)c2c1c1c3ccccc3n3c1c1c2c2ccccc2n1C1CCC3O1; 25
COC(=O)[C@@]1(O)C[C@H]2O[C@]1(C)n1c3ccccc3c3c4c(c5c6ccccc6n2c5c31)C(=O)NC4; 1
COc1cc(OC)c(/C=C2\C(=O)Nc3ccccc32)c(OC)c1; 88
CCn1cnc2c(Nc3cccc(Cl)c3)nc(N[C@@H]3CCCC[C@@H]3N)nc21; 83

Req: What does the record list as residual activity for O=C1Nc2ccc3ncsc3c2/C1=C/c1c[nH]cn1 ?
Resp: 35

---

experimental system: Glycogen synthase kinase-3 alpha (Homo sapiens)
test settings: at 10 µM
value kind: residual activity (%)
# unit: % | format: bare number

Use these answered entries as a reference point.
COC(=O)[C@@]1(O)C[C@H]2O[C@]1(C)n1c3ccccc3c3c4c(c5c6ccccc6n2c5c31)C(=O)NC4; 3
c1cc(-c2cnn3cc(-c4ccc(OCCN5CCCCC5)cc4)cnc23)ccn1; 76
O=C1NC(=O)c2c1c1c3ccccc3n3c1c1c2c2ccccc2n1C1CCC3O1; 3
O=[N+]([O-])/C=C/c1ccc2c(c1)OCO2; 113

Req: What does the record list as residual activity for C[S+]([O-])c1ccc(-c2nc(-c3ccc(F)cc3)c(-c3ccncc3)[nH]2)cc1 (centres undefined) ?
Resp: 49

Req: What does the record list as residual activity for CCn1cnc2c(Nc3cccc(Cl)c3)nc(N[C@@H]3CCCC[C@@H]3N)nc21 ?
Resp: 119

Req: What does the record list as residual activity for COc1cc(OC)c(/C=C2\C(=O)Nc3ccccc32)c(OC)c1 ?
Resp: 95

Req: What does the record list as residual activity for COc1cc2ncnc(Nc3ccc(OCc4ccccc4)cc3)c2cc1OC ?
Resp: 160

Req: What does the record list as residual activity for O=C1Nc2ccc3ncsc3c2/C1=C/c1c[nH]cn1 ?
Resp: 1

---

experimental system: Rho-associated protein kinase 1 (Homo sapiens) (UniProt Q13464)
Sequence (Q13464 2-1354 limits assumed): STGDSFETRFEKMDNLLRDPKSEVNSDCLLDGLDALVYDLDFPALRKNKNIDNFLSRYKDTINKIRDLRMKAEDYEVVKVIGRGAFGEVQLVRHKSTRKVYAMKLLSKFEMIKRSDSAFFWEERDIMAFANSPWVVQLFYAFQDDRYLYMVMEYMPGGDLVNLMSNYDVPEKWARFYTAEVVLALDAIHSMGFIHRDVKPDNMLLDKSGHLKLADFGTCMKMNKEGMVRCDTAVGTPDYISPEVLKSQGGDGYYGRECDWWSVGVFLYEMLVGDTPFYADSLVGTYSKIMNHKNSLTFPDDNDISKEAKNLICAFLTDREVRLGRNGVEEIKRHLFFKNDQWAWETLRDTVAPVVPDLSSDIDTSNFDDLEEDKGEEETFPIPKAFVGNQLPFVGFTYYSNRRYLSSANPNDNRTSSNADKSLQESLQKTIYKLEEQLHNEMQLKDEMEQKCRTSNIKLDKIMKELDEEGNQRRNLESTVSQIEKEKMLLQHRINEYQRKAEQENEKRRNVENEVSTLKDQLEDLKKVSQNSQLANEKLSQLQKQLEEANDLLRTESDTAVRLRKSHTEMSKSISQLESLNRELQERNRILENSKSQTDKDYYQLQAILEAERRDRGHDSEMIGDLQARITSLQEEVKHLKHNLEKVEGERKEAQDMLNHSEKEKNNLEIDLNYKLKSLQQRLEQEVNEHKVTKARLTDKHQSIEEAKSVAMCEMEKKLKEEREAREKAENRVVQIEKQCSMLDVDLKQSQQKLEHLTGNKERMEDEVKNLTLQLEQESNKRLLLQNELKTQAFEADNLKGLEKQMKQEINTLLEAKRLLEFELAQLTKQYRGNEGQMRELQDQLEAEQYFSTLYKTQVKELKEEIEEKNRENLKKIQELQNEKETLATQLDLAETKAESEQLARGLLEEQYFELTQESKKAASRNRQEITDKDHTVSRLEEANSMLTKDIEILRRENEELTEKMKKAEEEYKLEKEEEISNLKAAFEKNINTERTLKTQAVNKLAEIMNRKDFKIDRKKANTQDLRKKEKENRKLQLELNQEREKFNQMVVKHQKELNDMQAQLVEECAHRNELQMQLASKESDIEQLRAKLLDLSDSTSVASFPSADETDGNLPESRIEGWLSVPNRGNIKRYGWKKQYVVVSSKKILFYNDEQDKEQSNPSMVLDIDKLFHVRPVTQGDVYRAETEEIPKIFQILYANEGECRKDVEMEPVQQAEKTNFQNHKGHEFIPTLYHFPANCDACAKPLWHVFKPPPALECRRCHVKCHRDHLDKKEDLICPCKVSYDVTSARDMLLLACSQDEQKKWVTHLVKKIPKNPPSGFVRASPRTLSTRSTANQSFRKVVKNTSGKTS
test settings: at 10 µM
// reported residual activity per item
# unit: % | format: bare number

Use these answered entries as a reference point.
COc1cc2ncnc(Nc3ccc(OCc4ccccc4)cc3)c2cc1OC; 96
COC(=O)[C@@]1(O)C[C@H]2O[C@]1(C)n1c3ccccc3c3c4c(c5c6ccccc6n2c5c31)C(=O)NC4; 12
O=C1c2ccccc2-c2nc3nnnn3nc21; 117
CC(C)(C)c1cc(C=C(C#N)C#N)cc(Br)c1O; 82
O=c1[nH]c2ccccc2n1C1CCN(Cc2ccc(-c3nc4cc5[nH]cnc5cc4nc3-c3ccccc3)cc2)CC1; 119

Req: What does the record list as residual activity for O=[N+]([O-])/C=C/c1ccc2c(c1)OCO2 ?
Resp: 109

Req: What does the record list as residual activity for O=C1Nc2ccc3ncsc3c2/C1=C/c1c[nH]cn1 ?
Resp: 23

Req: What does the record list as residual activity for CCc1nc(-c2ccc(OC)cc2)[nH]c1-c1ccncc1 ?
Resp: 106

---

experimental system: Tyrosine-protein kinase ABL1 (Homo sapiens) (UniProt P00519)
Sequence (P00519 whole entry): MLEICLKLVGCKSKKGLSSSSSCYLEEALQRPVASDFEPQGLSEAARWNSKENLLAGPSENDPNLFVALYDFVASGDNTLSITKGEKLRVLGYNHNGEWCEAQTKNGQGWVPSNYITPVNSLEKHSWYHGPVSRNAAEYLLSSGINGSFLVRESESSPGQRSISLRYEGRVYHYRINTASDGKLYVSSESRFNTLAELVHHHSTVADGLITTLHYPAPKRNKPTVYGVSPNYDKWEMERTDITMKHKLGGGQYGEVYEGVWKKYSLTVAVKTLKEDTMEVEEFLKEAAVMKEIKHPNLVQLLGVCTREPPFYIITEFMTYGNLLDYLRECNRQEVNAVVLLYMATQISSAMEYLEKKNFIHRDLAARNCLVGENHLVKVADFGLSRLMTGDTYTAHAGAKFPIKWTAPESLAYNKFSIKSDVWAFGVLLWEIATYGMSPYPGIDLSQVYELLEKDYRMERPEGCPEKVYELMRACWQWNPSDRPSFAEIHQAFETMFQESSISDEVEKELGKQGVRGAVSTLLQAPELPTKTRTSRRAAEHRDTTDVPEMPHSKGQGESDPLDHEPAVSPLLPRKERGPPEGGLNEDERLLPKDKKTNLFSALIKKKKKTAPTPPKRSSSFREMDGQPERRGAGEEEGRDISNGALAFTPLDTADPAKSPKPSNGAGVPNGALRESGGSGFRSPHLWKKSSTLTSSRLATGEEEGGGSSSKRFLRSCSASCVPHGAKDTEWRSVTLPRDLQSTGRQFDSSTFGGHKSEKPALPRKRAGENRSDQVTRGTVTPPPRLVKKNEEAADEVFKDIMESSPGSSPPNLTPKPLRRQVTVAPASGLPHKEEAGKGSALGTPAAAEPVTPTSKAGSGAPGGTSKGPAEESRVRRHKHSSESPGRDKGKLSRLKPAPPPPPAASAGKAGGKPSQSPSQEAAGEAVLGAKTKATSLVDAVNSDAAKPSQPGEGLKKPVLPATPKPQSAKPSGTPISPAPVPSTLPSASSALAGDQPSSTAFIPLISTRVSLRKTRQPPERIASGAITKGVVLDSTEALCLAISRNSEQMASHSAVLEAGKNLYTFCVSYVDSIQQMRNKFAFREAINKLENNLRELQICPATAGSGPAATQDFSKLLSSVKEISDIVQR
test settings: at 10 µM
residual activity of 50% or higher: y. Under 50%: n.

Req: Answer whether residual activity of O=c1[nH]c2ccccc2n1C1CCN(Cc2ccc(-c3nc4cc5[nH]cnc5cc4nc3-c3ccccc3)cc2)CC1 is greater than or equal to 50%.
Resp: y

Req: Answer whether residual activity of O=[N+]([O-])/C=C/c1ccc2c(c1)OCO2 is greater than or equal to 50%.
Resp: y

Req: Answer whether residual activity of COc1cc(OC)c(/C=C2\C(=O)Nc3ccccc32)c(OC)c1 is greater than or equal to 50%.
Resp: y

Req: Answer whether residual activity of CC(C)(C)c1cc(C=C(C#N)C#N)cc(Br)c1O is greater than or equal to 50%.
Resp: n

Req: Answer whether residual activity of COc1ccc2c(c[n+](C)c3c4cc5c(cc4ccc23)OCO5)c1OC is greater than or equal to 50%.
Resp: y

Req: Answer whether residual activity of CCn1cnc2c(Nc3cccc(Cl)c3)nc(N[C@@H]3CCCC[C@@H]3N)nc21 is greater than or equal to 50%.
Resp: n

Req: Answer whether residual activity of O=C1Nc2ccc3ncsc3c2/C1=C/c1c[nH]cn1 is greater than or equal to 50%.
Resp: n

Req: Answer whether residual activity of COc1cc2ncnc(Nc3ccc(OCc4ccccc4)cc3)c2cc1OC is greater than or equal to 50%.
Resp: y

Req: Answer whether residual activity of CC(C)[C@H](CO)Nc1nc(Nc2cccc(Cl)c2)c2ncn(C(C)C)c2n1 is greater than or equal to 50%.
Resp: n

Req: Answer whether residual activity of c1cc(-c2cnn3cc(-c4ccc(OCCN5CCCCC5)cc4)cnc23)ccn1 is greater than or equal to 50%.
Resp: n
